Recorded PBM binding z-score, one value per entry.
System: THRa homodimer (NR concentration 90 nM)
Assay: PBM binding z-score (relative to random genomic background probes); higher = stronger binding; sequences stand for … in GC…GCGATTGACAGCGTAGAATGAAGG
readout-label: PBM binding z-score

> print(dat)
                              residues        readout.label  numeric.value
 1  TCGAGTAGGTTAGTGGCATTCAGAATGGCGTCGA  PBM binding z-score         -0.559
 2  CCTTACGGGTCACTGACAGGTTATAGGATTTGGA  PBM binding z-score          0.251
 3  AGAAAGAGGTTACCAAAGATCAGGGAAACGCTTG  PBM binding z-score         -0.577
 4  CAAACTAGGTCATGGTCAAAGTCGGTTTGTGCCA  PBM binding z-score            1.5
 5  TCTTGTAGATCAACTGGAGGTTAAGAAAGATCGA  PBM binding z-score         -0.207
 6  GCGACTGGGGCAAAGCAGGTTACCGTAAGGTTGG  PBM binding z-score         -0.142
 7  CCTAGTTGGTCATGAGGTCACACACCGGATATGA  PBM binding z-score           5.35
 8  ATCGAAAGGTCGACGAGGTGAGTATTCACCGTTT  PBM binding z-score          0.672
 9  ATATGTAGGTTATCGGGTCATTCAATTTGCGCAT  PBM binding z-score           2.86
10  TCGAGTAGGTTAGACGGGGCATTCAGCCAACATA  PBM binding z-score          -0.51
11  CGAACGAGGGCATGAGTTAATAGCAAATGCCGAT  PBM binding z-score          -0.42
12  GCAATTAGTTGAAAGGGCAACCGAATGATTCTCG  PBM binding z-score          -0.13

====

Tested on: RXRa homodimer (NR concentration 180 nM)
Assay: PBM binding z-score (relative to random genomic background probes); higher = stronger binding; sequences stand for … in GC…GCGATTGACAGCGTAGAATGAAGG
readout-label: PBM binding z-score

> print(dat)
                              residues        readout.label  numeric.value
 1  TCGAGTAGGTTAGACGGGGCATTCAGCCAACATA  PBM binding z-score          0.305
 2  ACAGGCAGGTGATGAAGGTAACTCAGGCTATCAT  PBM binding z-score         0.0459
 3  TCTTGTAGATCATCAGGTTAAGAAAGCTGGCCAA  PBM binding z-score          0.451
 4  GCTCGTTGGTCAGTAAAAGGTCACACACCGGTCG  PBM binding z-score           5.85
 5  GTACCAAGGTGAATAGGACGTTGATGAGTAGGCG  PBM binding z-score          0.542
 6  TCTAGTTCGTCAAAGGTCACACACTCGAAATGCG  PBM binding z-score           6.75
 7  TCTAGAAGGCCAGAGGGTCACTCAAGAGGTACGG  PBM binding z-score           3.03
 8  GCTAATAGTTGAAAGGGCAACCGAATGATTCTCG  PBM binding z-score           1.76
 9  TCATATAGGTAAAAGGTGAGAGTCGGTGTGGTAA  PBM binding z-score           2.55
10  GCGACTGGGGCATCAGCATGTTACCATAACTTAA  PBM binding z-score          0.217
11  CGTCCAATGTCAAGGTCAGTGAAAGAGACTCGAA  PBM binding z-score           2.22
12  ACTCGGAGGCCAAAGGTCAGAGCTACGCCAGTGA  PBM binding z-score           6.62
13  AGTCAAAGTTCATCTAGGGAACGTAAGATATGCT  PBM binding z-score           4.53
14  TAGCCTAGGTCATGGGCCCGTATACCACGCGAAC  PBM binding z-score           3.53
15  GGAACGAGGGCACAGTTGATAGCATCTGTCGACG  PBM binding z-score          0.922
16  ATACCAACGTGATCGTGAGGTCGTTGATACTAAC  PBM binding z-score          0.915
17  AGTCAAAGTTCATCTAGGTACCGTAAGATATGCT  PBM binding z-score           4.36
18  TCTAGCAGGGCAGAGGGTCACTCAAGAGGTACGG  PBM binding z-score           2.68
19  ACTAACGGGTCAACGAGGTTATAGCACGCGTATA  PBM binding z-score           5.17
20  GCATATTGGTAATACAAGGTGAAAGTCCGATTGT  PBM binding z-score          0.367
21  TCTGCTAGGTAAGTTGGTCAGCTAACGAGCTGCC  PBM binding z-score         -0.613
22  TCGAGTAGGTTAGGGGCATTCTGAATGGCGTCGA  PBM binding z-score          0.386
23  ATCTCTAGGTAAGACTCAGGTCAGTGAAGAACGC  PBM binding z-score          0.773
24  CCTCGGACGACAACAGGAGGTCAGAGCTGCCAGA  PBM binding z-score           1.84
25  TCATATAGGTAAAAGGTGAAAGTCGGTGTGGTAA  PBM binding z-score           2.96
26  AGAACGAGGGCACGCTGAGTTGAGAGCAGAGTAG  PBM binding z-score           1.57
